system: HCT-116; assay: NCI tumour cell line growth inhibition, 48 h
The source made the active and inactive calls. Rule as the data show it: active = GI50 up to about 1.1 µM and inactive = higher.
Outcomes: active, inactive

# molecule, target.or.test.system, label
measured = [
    ("N#Cc1c(=O)c2cc([N+](=O)[O-])ccc2n2c1[nH]c1ccccc12", "HCT-116", "inactive"),
    ("COc1ccc(/N=C2/C(=N/c3ccc(OC)cc3)N(c3ccccc3)C(=S)N2N=C=C2Sc3ccccc3N2C)cc1", "HCT-116", "inactive"),
    ("COc1nc(OC)c2c(=O)oc(-c3ccccc3)cc2n1", "HCT-116", "inactive"),
    ("Cc1cc2c(cc1Br)C1(C)CCC(C)C1(C)O2 (stereo not given)", "HCT-116", "inactive"),
    ("O=C(O)CCNC(=O)c1cc(N(CCBr)CCBr)c([N+](=O)[O-])cc1[N+](=O)[O-]", "HCT-116", "inactive"),
    ("COc1cc(/C=N\\O)cc(/C=N/O)c1O", "HCT-116", "inactive"),
    ("C=C(C)CCC(O)[C@](C)(O)[C@H]1[C@H](O)C[C@@]2(C)[C@@H]3CCc4c(cc(OC5OC(CO)C(O)C(O)C5O)c(O)c4C)C3(C)C(=O)C[C@]12C (stereo not given in full)", "HCT-116", "inactive"),
    ("CCCSc1ccc2[nH]c(N3C(=O)/C(=C/c4ccccc4)N=C3c3ccccc3)cc2c1", "HCT-116", "inactive"),
    ("COc1ccccc1C1c2cc3c(cc2OC(N2CCOCC2)C1C)OCO3 (stereo not given)", "HCT-116", "inactive"),
    ("COc1ccc(-c2csc3c2-n2cccc2C3=O)cc1", "HCT-116", "active"),
    ("O=c1[nH]c(Br)nc2c(N3CCCCC3)c[nH]c12", "HCT-116", "inactive"),
    ("O=C1c2ccccc2C(=O)N1c1ccc(OCCN2CCCCC2)cc1", "HCT-116", "inactive"),
    ("CCCc1c2c([nH]c(=O)c1C)C(=O)c1[nH]c(=O)c(C)c(CCC)c1C2=O", "HCT-116", "inactive"),
    ("c1ccc(CSC2(SCc3ccccc3)CCCCC2)cc1", "HCT-116", "inactive"),
    ("CC(N/N=C(\\S)N1CCCCCC1)c1cccnn1 (stereo not given)", "HCT-116", "active"),
    ("COc1cc2c(cc1OC)-c1cc3cc(OC)c(OC)cc3n1CC2", "HCT-116", "inactive"),
    ("O=C1N/C(=N/N=C/c2ccccc2)N/C1=C\\c1c[nH]c2ccccc12", "HCT-116", "inactive"),
    ("COc1cc(/C=N\\c2ccc(C(C)C)cc2)cc(OC)c1OC", "HCT-116", "inactive"),
    ("O=[N+]([O-])c1ccc2c(c1)S(=O)(=O)N1Cc3ccccc3CCN21", "HCT-116", "inactive"),
    ("COc1cc(Cl)c2c3c(c(C(C)=O)oc13)CCC2", "HCT-116", "inactive"),
    ("COc1cc(-c2cc(=O)c3c(O)c(OC)c(OC)c(OC)c3o2)ccc1O", "HCT-116", "inactive"),
    ("CC[C@@H](C(=O)[C@@H](C)[C@@H](O)[C@H](C)CCc1ccc(C)c(O)c1C(=O)O)[C@H]1O[C@](CC)([C@H]2CC[C@](O)(CC)[C@H](C)O2)C[C@@H]1C [LASALOCID A SODIUM]", "HCT-116", "inactive"),
    ("NCCO/C=C/C(N)C(=O)O (stereo not given) [AMINOETHOXYVINYLGLYCINE]", "HCT-116", "inactive"),
    ("CCOC(=O)C1=C(Nc2cccc3ccccc23)OCC1=O", "HCT-116", "inactive"),
    ("Sc1nnc(CCCCCCCCc2nnc(S)o2)o1", "HCT-116", "inactive"),
    ("C[C@]12CC[C@H](OC(=O)Nc3ccccc3)CC1=CC[C@@H]1C2CC[C@]2(C)/C(=N/OC(=O)Nc3ccccc3)CCC12 (stereo not given in full)", "HCT-116", "inactive"),
    ("CCOC(=O)C(Cc1ccccc1)(Cc1ccc(O)cn1)NC(=O)c1ccccc1 (stereo not given)", "HCT-116", "inactive"),
    ("Cc1ccc([Se][Se]c2ccc(C)cc2)cc1", "HCT-116", "inactive"),
    ("Cc1c2c(n3c(nc4ccccc43)c1C#N)NCC2", "HCT-116", "inactive"),
    ("CCOC(=O)c1cc(/C=C/C(C)=C/C(=O)OC)oc1C", "HCT-116", "inactive"),
]
